Each record here notes measured % inhibition of EGFR phosphorylation at 100 nM binder, cell-based assay.
# Test system: EGFR on the surface of human tumour cells (A431, H292) (human, UniProt P00533 25-1210)
# Measurement notes: cell-based or functional assay
Measurement kind: % inhibition of EGFR phosphorylation at 100 nM binder, cell-based assay (%)

Binder | Observed result
E86 (designed binder) 10Fn3 domain: MGVSDVPRDLEVVAATPTSLLISWDSGENNYQYYRITYGETGGNSPVQEFTVPGGVRTATISGLKPGVDYTITVYAVTDYYNPKTHEYNYLTIPISINYRTEIDKPSQ | 84.7
E89 (designed binder) 10Fn3 domain: MGVSDVPRDLEVVAATPTSLLISWDDPAANRQYYRITYGETGGNSPVQEFTVPYDLRTATISGLKPGVDYTITVYAVTDYYNPATHQYKYSQSPISINYRTEIDKPSQ | 82.6
E93 (designed binder) 10Fn3 domain: MGVSDVPRDLEVVAATPTSLLISWDSGRGSYQYYRITYGETGGNSPVQEFTVPGGVRTATISGLKPGVDYTITVYAVTDYKPHADGPHTYHEYPISINYRTEIDKPSQ | 76.9
E94 (designed binder) 10Fn3 domain: MGVSDVPRDLEVVAATPTSLLISWNNGGRNYQYYRITYGETGGNSPVQEFTVPYDVYTATISGLKPGVDYTITVYAVTDYKPHADGPHTYHEYPISINYRTEIDKPSQ | 78.7
